Please respond with reported IC50 for every item in the list.
tested on: cruzain (Trypanosoma cruzi, UniProt P25779)
Construct: From 40 to 120 minutes, mature cruzain was obtained in a soluble and enzymatically active form; His tag (histidine tail); made in house; host or cells: E. coli BL21 DE3 (pET 21a (+) with the pro-cruzain gene)
Sequence (P25779 123-337): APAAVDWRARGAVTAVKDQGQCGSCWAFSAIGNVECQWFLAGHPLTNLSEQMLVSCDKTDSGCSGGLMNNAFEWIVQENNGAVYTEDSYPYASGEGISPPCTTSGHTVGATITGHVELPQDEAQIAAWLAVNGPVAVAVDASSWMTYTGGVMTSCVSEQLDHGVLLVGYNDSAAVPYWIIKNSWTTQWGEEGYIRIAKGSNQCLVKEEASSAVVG
assay overview: Inhibition of cruzain enzymatic (proteolytic) activity, casein substrate
Assay type: biochemical
reported conditions: cruzain 50 μM; peptide 500 to 62.5 μM; 1% casein substrate, Tris-HCl 0.1 M pH 8, 37°C; absorbance 280 nm; SD; read-out: I50(µM) ± SD, inhibition of cruzain proteolytic activity
No end group written: not given here.
Numbers only, in µM.

{"seq": "KIPGGQVVTGPWK [Pep8]", "IC50 (µM)": 281}
{"seq": "KGGLQVVTGAPWK [Pep7]", "IC50 (µM)": 389}
{"seq": "KGGLQVVTGPWK [Pep6]", "IC50 (µM)": 385}

// query Tell me measured IC50 for GGLQVVTGPW [Pep5] please.
// result 220

---

tested on: epimastigote forms of clone CL B5 of Trypanosoma cruzi
assay overview: In vitro trypanocidal activity on epimastigotes (CPRG, β-galactosidase)
Assay type: cell-based
reported conditions: T. cruzi CL B5 lacZ epimastigotes, 2.5 × 10^5 parasites/mL, 72 hours at 28°C, peptides 500-62.5 µM, CPRG read-out at 590 nm; SD
No end group written: not given here.
test readout: IC50 (µM)
Answers are plain numbers, in µM.

Field: example entries. Status: answers known.
{"seq": "KIPGGQVVTGPWK [Pep8]", "quantity unit": "µM", "IC50": 471}
{"seq": "KGGLQVVTGAPWK [Pep7]", "quantity unit": "µM", "IC50": 390}

// query Find the measured IC50 of GGLQVVTGPW [Pep5] and report it.
// result 476

---

tested on: epimastigote forms of clone CL B5 of Trypanosoma cruzi
assay overview: In vitro trypanocidal activity on epimastigotes (CPRG, β-galactosidase)
Assay type: cell-based
reported conditions: T. cruzi CL B5 lacZ epimastigotes, 2.5 × 10^5 parasites/mL, 72 hours at 28°C, peptides 500-62.5 µM, CPRG read-out at 590 nm; read-out: IC50 (µM) ± SD, trypanocidal activity
No end group written: not given here.
test readout: IC50

Some entries whose results are on file:
{"substance": "KQVVTGK [Pep4, linear peptide derived from AsCystatin with lysine residues at each end]", "IC50": "> 500 µM"}
{"substance": "QSQVVTGAK [Pep3]", "IC50": "> 500 µM"}
{"substance": "KGGLQVVTGPWK [Pep6]", "IC50": "> 500 µM"}

Let us move to another entry and its IC50.
// query Indicate the recorded IC50 value for this substance: IPGGLSK [Pep1]
// result > 500 µM
